target_under_test: UniProt:Q9NR96
Sequence (Q9NR96 26-1032): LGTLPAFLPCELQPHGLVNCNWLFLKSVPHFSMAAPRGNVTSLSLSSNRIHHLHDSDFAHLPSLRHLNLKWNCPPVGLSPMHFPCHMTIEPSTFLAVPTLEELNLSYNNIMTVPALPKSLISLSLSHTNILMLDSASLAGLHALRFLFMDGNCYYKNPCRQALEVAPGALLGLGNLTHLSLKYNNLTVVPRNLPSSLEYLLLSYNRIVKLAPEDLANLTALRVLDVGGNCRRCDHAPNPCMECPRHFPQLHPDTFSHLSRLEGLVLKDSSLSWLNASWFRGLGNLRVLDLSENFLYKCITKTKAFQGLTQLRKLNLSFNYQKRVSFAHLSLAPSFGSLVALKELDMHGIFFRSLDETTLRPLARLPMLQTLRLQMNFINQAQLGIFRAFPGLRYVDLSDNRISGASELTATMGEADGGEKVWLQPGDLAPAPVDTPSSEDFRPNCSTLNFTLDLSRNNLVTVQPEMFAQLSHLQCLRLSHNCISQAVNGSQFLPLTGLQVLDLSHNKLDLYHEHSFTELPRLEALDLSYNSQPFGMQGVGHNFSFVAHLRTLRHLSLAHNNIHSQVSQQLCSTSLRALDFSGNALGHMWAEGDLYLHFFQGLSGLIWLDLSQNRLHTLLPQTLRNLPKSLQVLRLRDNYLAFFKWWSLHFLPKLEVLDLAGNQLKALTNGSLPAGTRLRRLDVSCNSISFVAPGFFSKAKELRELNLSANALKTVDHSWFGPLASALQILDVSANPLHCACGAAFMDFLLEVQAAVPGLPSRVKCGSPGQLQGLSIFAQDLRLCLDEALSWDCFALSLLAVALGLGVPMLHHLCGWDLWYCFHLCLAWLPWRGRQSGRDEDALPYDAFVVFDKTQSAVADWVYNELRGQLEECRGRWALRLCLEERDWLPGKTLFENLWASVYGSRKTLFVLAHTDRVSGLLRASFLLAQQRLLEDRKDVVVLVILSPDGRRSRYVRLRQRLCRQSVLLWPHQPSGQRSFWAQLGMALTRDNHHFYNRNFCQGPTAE
procedure_text: TLR9 inhibition reporter assay (HEK-Blue SEAP);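 further: SEAP driven by an IFN-β minimal promoter with NF-κB and AP-1 sites, read after 22 h, compounds dosed 0.05 nM–50 µM, inhibition scaled between agonist plus DMSO and reference-inhibitor wells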
details: read-out: TLR9 IC50; HEK-Blue cells overexpressing human TLR9, ODN2006 5 nM stimulation, SEAP reporter
readout_type: IC50 (µM)

compound	target_under_test	IC50 [µM]
Cc1c(-c2[nH]c3ccc(N4CCNC[C@H]4C)nc3c2C(C)C)cn2ncnc2c1C	UniProt:Q9NR96	7.15

[I] CC(C)c1c(-c2cc(CO)c3ncnn3c2)[nH]c2ccc(C3CCC(N(C)Cc4ccc(F)cc4)CC3)nc12 (stereo not shown)
[II] Cc1c(-c2[nH]c3ccc(N4CCC(NC5COC5)C4)nc3c2C(C)C)cn2ncnc2c1C (racemic)
Challenge: Pick one: I or II . Which one has the lower reported IC50? Indicate your choice by writing its label.
Response given: I
(I: 10.1 µM, II: 19.8 µM)
